- Test system: HLA-B40
- experiment: REVEAL binding assay
- run_parameters: score as percentage of the signal generated by the positive control peptide
The following substances are shown together with reported REVEAL binding score, HLA-type B40 values.
Give just the number in %; leave the unit off.

>  <substance>
QIIGGNYLI

>  <reading_unit>
%

>  <REVEAL binding score, HLA-type B40>
83.60

$$$$
>  <substance>
SRNLGKVID

>  <reading_unit>
%

>  <REVEAL binding score, HLA-type B40>
33.93

$$$$
>  <substance>
TGNIPGSTY

>  <reading_unit>
%

>  <REVEAL binding score, HLA-type B40>
38.15

$$$$

Using the record for IRVIAHGLR , report its REVEAL binding score, HLA-type B40.
26.45

Using the record for GYIPLVGAP , report its REVEAL binding score, HLA-type B40.
72.32

Using the record for GPRLGVRAT , report its REVEAL binding score, HLA-type B40.
19.95

----------
- Tested on: HLA-A1
- experiment: REVEAL binding assay
- run_parameters: score as percentage of the signal generated by the positive control peptide
Where no end group is shown, it is not given here. [ ]: non-standard residue; d: D form. Cit = NC(=O)NCCC[C@H](N)C(=O)O
The following substances are shown together with reported REVEAL binding score, HLA-type A1 values.
Give just the number in %; leave the unit off.

>  <substance>
VGGVYLLPR

>  <REVEAL binding score, HLA-type A1 (%)>
17.88

$$$$
>  <substance>
IVGGVYLLP

>  <REVEAL binding score, HLA-type A1 (%)>
22.11

$$$$
>  <substance>
IGGNYLIPR

>  <REVEAL binding score, HLA-type A1 (%)>
17.90

$$$$
>  <substance>
IRNLGRVIE

>  <REVEAL binding score, HLA-type A1 (%)>
14.22

$$$$
>  <substance>
RNLGKVIDT

>  <REVEAL binding score, HLA-type A1 (%)>
18.90

$$$$
>  <substance>
IIGGNYLIP

>  <REVEAL binding score, HLA-type A1 (%)>
21.14

$$$$
>  <substance>
GKVIDTLTC

>  <REVEAL binding score, HLA-type A1 (%)>
14.77

$$$$
>  <substance>
KVIDTLTCG

>  <REVEAL binding score, HLA-type A1 (%)>
15.77

$$$$
>  <substance>
YLPAVGAPI

>  <REVEAL binding score, HLA-type A1 (%)>
15.76

$$$$
>  <substance>
GNLPGCSFS

>  <REVEAL binding score, HLA-type A1 (%)>
6.44

$$$$

Using the record for YATGNLPGC , report its REVEAL binding score, HLA-type A1.
8.10

Using the record for LGKVIDTLT , report its REVEAL binding score, HLA-type A1.
22.08

Using the record for VIRVIAHGL , report its REVEAL binding score, HLA-type A1.
18.66

Using the record for GQIIGGNYL , report its REVEAL binding score, HLA-type A1.
20.65

Using the record for GP[Cit]IGVRAT , report its REVEAL binding score, HLA-type A1.
18.60

----------
- study_system: HLA-A11 (Homo sapiens, UniProt P04439, A114D/F33Y/S129P)
- experiment: REVEAL binding assay
- run_parameters: score as percentage of the signal generated by the positive control peptide
metric_name: REVEAL binding score, HLA-type A11 (%)
Give just the number in %; leave the unit off.

Known REVEAL binding score, HLA-type A11 results, listed for orientation:
>  <substance>
VIRVIAHGL

>  <metric_name>
REVEAL binding score, HLA-type A11

>  <endpoint_value>
4.54

$$$$
>  <substance>
GKVIDTLTC

>  <metric_name>
REVEAL binding score, HLA-type A11

>  <endpoint_value>
3.96

$$$$

I'm curious: which REVEAL binding score, HLA-type A11 was measured for MGYIPLVGA tested on HLA-A11 (Homo sapiens, UniProt P04439, A114D/F33Y/S129P)?
4.79

I'm curious: which REVEAL binding score, HLA-type A11 was measured for VGGVYLLPR tested on HLA-A11 (Homo sapiens, UniProt P04439, A114D/F33Y/S129P)?
4.16

I'm curious: which REVEAL binding score, HLA-type A11 was measured for RVIAHGLRL tested on HLA-A11 (Homo sapiens, UniProt P04439, A114D/F33Y/S129P)?
17.75

I'm curious: which REVEAL binding score, HLA-type A11 was measured for IPLVGAPLG tested on HLA-A11 (Homo sapiens, UniProt P04439, A114D/F33Y/S129P)?
2.05

I'm curious: which REVEAL binding score, HLA-type A11 was measured for IVGGVYLLP tested on HLA-A11 (Homo sapiens, UniProt P04439, A114D/F33Y/S129P)?
3.10

I'm curious: which REVEAL binding score, HLA-type A11 was measured for YATGNLPGC tested on HLA-A11 (Homo sapiens, UniProt P04439, A114D/F33Y/S129P)?
2.16

I'm curious: which REVEAL binding score, HLA-type A11 was measured for GGQIIGGNY tested on HLA-A11 (Homo sapiens, UniProt P04439, A114D/F33Y/S129P)?
2.40

I'm curious: which REVEAL binding score, HLA-type A11 was measured for NIPGSTYSL tested on HLA-A11 (Homo sapiens, UniProt P04439, A114D/F33Y/S129P)?
3.20

----------
- Test system: HLA-A29
- experiment: REVEAL binding assay
- run_parameters: score as percentage of the signal generated by the positive control peptide
Where no end group is shown, it is not given here. [ ]: non-standard residue; d: D form. Nle = CCCC[C@H](N)C(=O)O
metric_name: REVEAL binding score, HLA-type A29 (%)
Give just the number in %; leave the unit off.

Known REVEAL binding score, HLA-type A29 results, listed for orientation:
>  <substance>
TGNLPGCSF

>  <reading_unit>
%

>  <REVEAL binding score, HLA-type A29>
18.89

$$$$
>  <substance>
GNLPGCSFS

>  <reading_unit>
%

>  <REVEAL binding score, HLA-type A29>
13.48

$$$$
>  <substance>
GITFSIYLI

>  <reading_unit>
%

>  <REVEAL binding score, HLA-type A29>
10.42

$$$$

Using the record for L[Nle]GYIPLIG , report its REVEAL binding score, HLA-type A29.
25.94

Using the record for RVIETLTSG , report its REVEAL binding score, HLA-type A29.
15.52

Using the record for [Nle]GYIPLIGA , report its REVEAL binding score, HLA-type A29.
27.85

----------
- System: human PBMCs
- Type: cell-based
- run_parameters: With Cytofix/Cytoperm and trypsination; BC20; concentration 104 μM
Category | rule: reported Geomean value (peptide-fluorescence) within range, see low = under 1000, moderate = from 1000 up to 3000, high = 3000 and over

>  <ordered_residues>
WGYIPLVGAPLGRRVARALAHGVRV [SP12]

>  <group>
high

$$$$
>  <ordered_residues>
RGYIPLVGAPLGKKKVARALAHGVRV [SP9]

>  <group>
moderate

$$$$
>  <ordered_residues>
RGYIPLVGAPLGRRVARALAHGVRV [SP3]

>  <group>
high

$$$$
>  <ordered_residues>
GGGYIPLVGAPLGGGVARALAHGVRV [SP15]

>  <group>
low

$$$$
>  <ordered_residues>
RGYIPLVGAPLGRRRVARALAHGVRV [SP10]

>  <group>
high

$$$$
>  <ordered_residues>
EEGYIPLVGAPLGEEVARALAHGVRV [SP14]

>  <group>
low

$$$$
>  <ordered_residues>
RRGYIPLVGAPLGLRRVARALAHGVRV [SP17]

>  <group>
moderate

$$$$
>  <ordered_residues>
RRGYIPLVGAPLGBGRVARALAHGVRV [SP2]

>  <group>
moderate

$$$$
>  <ordered_residues>
RRGPVVHLTLRRRGQAGDDFS [SP18]

>  <group>
moderate

$$$$
>  <ordered_residues>
BRGYIPLVGAPLGRRVARALAHGVRV [SP7]

>  <group>
moderate

$$$$

State the band of RRGYIPLVGAPLGRRVARALAHGVRV [SP5]
high

State the band of RRGPVVHLTLRRRGQAGDDFS [SP19]
moderate

State the band of RRGPVVHLTLRGRRGQAGDDFS [SP20]
low

State the band of RRGYIPLVGAPLGRRRVARALAHGVRV [SP6]
moderate

State the band of EEGYIPLVGAPLGRRVARALAHGVRV [SP16]
low

State the band of KKGYIPLVGAPLGKKVARALAHGVRV [SP11]
low

----------
The following substances are shown together with reported REVEAL binding score, HLA-type A2 values.
- study_system: HLA-A2 (Homo sapiens, UniProt P04439, D140Y/D185E/D98H/E176V/E277Q/G131W/G231S/I119V/I121R/I166T/I218V/N151K/N90K/P208A/P217A/Q86G/Q94H/R138H/R169H)
- experiment: REVEAL binding assay
- run_parameters: score as percentage of the signal generated by the positive control peptide
Where no end group is shown, it is not given here. [ ]: non-standard residue; d: D form. Nle = CCCC[C@H](N)C(=O)O
Give just the number in %; leave the unit off.

Using the record for ATGNLPGCS , report its REVEAL binding score, HLA-type A2.
4.62

Using the record for GYIPLVGAP , report its REVEAL binding score, HLA-type A2.
7.28

Using the record for YLPAVGAPI , report its REVEAL binding score, HLA-type A2.
75.80

Using the record for L[Nle]GYIPLIG , report its REVEAL binding score, HLA-type A2.
49.48

Using the record for TFSIYLIVS , report its REVEAL binding score, HLA-type A2.
2.02

Using the record for VTGNIPGST , report its REVEAL binding score, HLA-type A2.
8.44

Using the record for NYATGNLPG , report its REVEAL binding score, HLA-type A2.
3.94

Using the record for LMGYIPLVG , report its REVEAL binding score, HLA-type A2.
31.94

Using the record for SRNLGKVID , report its REVEAL binding score, HLA-type A2.
4.94
